# Tested on: UACC-62 melanoma
# procedure text: NCI-60 one-dose screen, 48 h (100 = growth as untreated, 0 = no growth, -100 = all killed)
# protocol conditions: 10 µM unless noted
Compounds without any hit were thinned out: in the full panel of roughly 83,000, 20% have a hit. The source made the active and inactive calls. Rule for the calls: active = growth percent below 10; inactive = the rest.
parameter: growth

Examples with their reported growth follow.
compound	result
C/C(=C\c1ccn(-c2ccc(N)cc2C(F)(F)F)n1)[C@@H]1C[C@@H]2O[C@]2(C)CCC[C@H](C)[C@H](O)[C@@H](C)C(=O)C(C)(C)[C@@H](O)CC(=O)O1	27.7% (inactive)
Cc1ccc(C(Cc2ccccc2)NCCO)cc1 (stereo unspecified)	94.7% (inactive)
O=C([O][Hg][CH2]C1OCCOC1[CH2][Hg][O]C(=O)c1ccccc1)c1ccccc1 (stereo unspecified)	106% (inactive)
O=C(N/N=C\c1ccc(N(CCCl)CCCl)cc1)c1cccc([N+](=O)[O-])c1	77.9% (inactive)
C[C@@]12CC[C@@H](O)C[C@@H]1CC[C@H]1[C@H]2CC[C@@]2(C)[C@H](c3ccc(=O)oc3)CC[C@@]12O	-71% (active)
CC(=O)OCc1cc[c]([Hg][Cl])o1	47.8% (inactive)
C/C=C(\C)C(=O)O[C@@H]1C(O)[C@H]2OC(COC(=O)CCC(=O)CCCCCC[C@H](CCCCC)O[C@@H]3OC(C)[C@H](OC(C)=O)C(O)[C@H]3O2)[C@H]1OC(=O)/C=C/c1ccccc1 (stereo partly specified)	-46.8% (active)
COc1ccc(Nc2ccnc3cc(Cl)ccc23)cc1CN(CCCl)CCCl	-87% (active)
CC(=O)O[C@H]1C(=O)[C@@]2(C)[C@H]([C@H](OC(=O)c3ccccc3)[C@]3(O)C[C@H](OC(=O)[C@H](OC(=O)OCC4COC(C)(C)O4)[C@@H](NC(=O)c4ccccc4)c4ccccc4)C(C)=C1C3(C)C)[C@]1(OC(C)=O)CO[C@@H]1C[C@@H]2O (stereo partly specified)	34.4% (inactive)
COC1=CC(=O)O[C@@H](/C=C/c2ccc3c(c2)OCO3)C1	94% (inactive)

Read off the recorded growth for O=C1CCC2(O)[C@@H]3Cc4ccc(O)c5c4[C@]2(CCN3Cc2ccoc2)C1O5 (stereo partly specified) 109% (inactive)

Query growth for `CN1C(=O)N[C@H]2[C@@H]3NC(=O)c4ccc(Br)n4[C@@H]3C[C@]21O` -54.2% (active)

Provide only the value of recorded growth for `COC(=O)[C@@H](C)C[C@H](Cc1ccccc1)NC(=O)c1csc([C@@H](C[C@H](C(C)C)N(C)C(=O)[C@@H](NC(=O)[C@H]2CCCN2C)C2CC2)OC(C)=O)n1` 41.2% (inactive)

State its growth for this compound: `CC(=O)O[C@H]1CC[C@@]2(C)C(=CC[C@H]3[C@@H]4C[C@@H](N5CC5)[C@H](C(C)=O)[C@@]4(C)CC[C@@H]32)C1` 92.8% (inactive)

# return recorded growth for entry O=C1OCCC1Br (stereo unspecified) 103% (inactive)

State, in one line, measured growth of O=C(CC1(O)C(=O)Nc2ccc(Cl)cc21)c1ccc(C(=O)NCC2CCC3(CC2)OOC2(CCCCC2)OO3)cc1 (stereo unspecified) 50.7% (inactive)
